# testedSystem: CDK4/Cyclin D3 (Homo sapiens) (UniProt P11802+P30281)
# assayText: Inhibition of recombinant full length human CDK4/Cyclin D3 using Rb-fragmen as substrate at 1 uM incubated for 40 mins by [gamma-33P]-ATP based radiometric assay relative to control
# Type: protein-complex assay
If the reported inhibition equals or exceeds 80%, assign class 1. If not, assign class 0.

Would you please look over these solved cases?
Is inhibition for CC(C)n1nnc2ccc(-c3nc(Nc4ccc(NC(=O)C5(C(=O)Nc6cccc(C(F)(F)F)c6)CC5)cc4)ncc3F)cc21 at or above 80%?
class 0

Confirm if inhibition reported for the compound Cc1cccc(NC(=O)C2(C(=O)Nc3ccc(Nc4ncc(F)c(-c5ccc6nnn(C(C)C)c6c5)n4)cc3)CC2)c1 is 80% or above.
class 0

inhibition >= 80% for CC(C)n1nnc2ccc(-c3nc(Nc4ccc(NC(=O)C5(C(=O)Nc6ccc(F)cc6)CC5)cc4)ncc3F)cc21 ?
class 0

Could you please find out whether Cc1nc2c(F)cc(-c3nc(Nc4ccc(NC(=O)C5(C(=O)Nc6ccc(Br)cc6)CC5)cc4)ncc3F)cc2n1C(C)C has inhibition that meets 80% or exceeds it?
class 1

Entry CC(C)n1nnc2ccc(-c3nc(Nc4ccc(NC(=O)C5(C(=O)Nc6ccc(Cl)c(C(F)(F)F)c6)CC5)cc4)ncc3F)cc21 : is its inhibition no less than 80%?
class 0

Determine whether this compound has inhibition no lower than 80%: Cc1nc2c(F)cc(-c3nc(Nc4ccc(NC(=O)C5(C(=O)Nc6cccc(C(F)(F)F)c6)CC5)cc4)ncc3F)cc2n1C(C)C
class 0

Determine whether this compound has inhibition no lower than 80%: Cc1ccc(NC(=O)C2(C(=O)NCc3ccc(Nc4ncc(F)c(-c5cc(F)c6nc(C)n(C(C)C)c6c5)n4)cc3)CC2)cc1
class 1

Could you tell me if the measured inhibition of CCN1CCN(Cc2ccc(Nc3ncc(F)c(-c4cc(F)c5nc(C)n(C(C)C)c5c4)n3)nc2)CC1 [ABEMACICLIB] reaches 80% or more?
class 1

Further cases:
Can Cc1nc2c(F)cc(-c3nc(Nc4ccc(NC(=O)C5(C(=O)Nc6cccc(F)c6)CC5)cc4)ncc3F)cc2n1C(C)C be said to have inhibition at or above 80%?
class 1

Is inhibition at least 80%? Consider Cc1cccc(NC(=O)C2(C(=O)Nc3ccc(Nc4ncc(F)c(-c5cc(F)c6nc(C)n(C(C)C)c6c5)n4)cc3)CC2)c1
class 1

Given Cc1nc2c(F)cc(-c3nc(Nc4ccc(NC(=O)C5(C(=O)Nc6ccc(Cl)c(C(F)(F)F)c6)CC5)cc4)ncc3F)cc2n1C(C)C , state whether its inhibition is at least 80%.
class 0

inhibition >= 80% for Cc1nc2c(F)cc(-c3nc(Nc4ccc(CNC(=O)C5(C(=O)Nc6ccc(C(F)(F)F)cc6)CC5)cc4)ncc3F)cc2n1C(C)C ?
class 0

Has Cc1nc2c(F)cc(-c3nc(Nc4ccc(CNC(=O)C5(C(=O)Nc6ccc(Cl)c(C(F)(F)F)c6)CC5)cc4)ncc3F)cc2n1C(C)C a recorded inhibition greater than or equal to 80%?
class 0

Determine whether this compound has inhibition no lower than 80%: Cc1nc2c(F)cc(-c3nc(Nc4ccc(CNC(=O)C5(C(=O)Nc6ccc(Cl)cc6)CC5)cc4)ncc3F)cc2n1C(C)C
class 1

Record Cc1nc2c(F)cc(-c3nc(Nc4ccc(NC(=O)C5(C(=O)Nc6ccc(Cl)cc6)CC5)cc4)ncc3F)cc2n1C(C)C ; criterion: inhibition no lower than 80%. Met?
class 0

Please tell me: is the compound Cc1ccc(NC(=O)C2(C(=O)Nc3ccc(Nc4ncc(F)c(-c5cc(F)c6nc(C)n(C(C)C)c6c5)n4)cc3)CC2)cc1 at or over 80% in terms of inhibition?
class 1

hey, is inhibition for this one >= 80%? Cc1nc2c(F)cc(-c3nc(Nc4ccc(NC(=O)C5(C(=O)Nc6ccc(C(F)(F)F)cc6)CC5)cc4)ncc3F)cc2n1C(C)C
class 0

Does the reported inhibition for Cc1nc2c(F)cc(-c3nc(Nc4ccc(NC(=O)C5(C(=O)Nc6cccc(Cl)c6)CC5)cc4)ncc3F)cc2n1C(C)C fall at or above the 80% mark?
class 0

Reported inhibition reaches at least 80% for CC(C)n1nnc2ccc(-c3nc(Nc4ccc(NC(=O)C5(C(=O)Nc6cccc(Cl)c6)CC5)cc4)ncc3F)cc21 ?
class 0

I'd appreciate it if you could say whether CC(C)n1nnc2ccc(-c3nc(Nc4ccc(NC(=O)C5(C(=O)Nc6ccc(Br)cc6)CC5)cc4)ncc3F)cc21 has inhibition at least equal to 80%.
class 0

API: above_or_equal(metric=inhibition, cutoff=80%) for item CC(C)n1nnc2ccc(-c3nc(Nc4ccc(NC(=O)C5(C(=O)Nc6cccc(Br)c6)CC5)cc4)ncc3F)cc21
class 0

Quick check, inhibition >= 80%? Cc1nc2c(F)cc(-c3nc(Nc4ccc(NC(=O)C5(C(=O)Nc6cccc(Br)c6)CC5)cc4)ncc3F)cc2n1C(C)C
class 1

Evaluate CC(C)n1nnc2ccc(-c3nc(Nc4ccc(NC(=O)C5(C(=O)Nc6ccc(C(F)(F)F)cc6)CC5)cc4)ncc3F)cc21 : inhibition at minimum 80%?
class 0
